Target: fibrinogen receptor, glycoprotein IIb/IIIa (Homo sapiens, UniProt P05106+P08514)
Construct: obtained from Triton X-100 extracts of human blood platelets
Sequence (P08514 32-887 limits assumed): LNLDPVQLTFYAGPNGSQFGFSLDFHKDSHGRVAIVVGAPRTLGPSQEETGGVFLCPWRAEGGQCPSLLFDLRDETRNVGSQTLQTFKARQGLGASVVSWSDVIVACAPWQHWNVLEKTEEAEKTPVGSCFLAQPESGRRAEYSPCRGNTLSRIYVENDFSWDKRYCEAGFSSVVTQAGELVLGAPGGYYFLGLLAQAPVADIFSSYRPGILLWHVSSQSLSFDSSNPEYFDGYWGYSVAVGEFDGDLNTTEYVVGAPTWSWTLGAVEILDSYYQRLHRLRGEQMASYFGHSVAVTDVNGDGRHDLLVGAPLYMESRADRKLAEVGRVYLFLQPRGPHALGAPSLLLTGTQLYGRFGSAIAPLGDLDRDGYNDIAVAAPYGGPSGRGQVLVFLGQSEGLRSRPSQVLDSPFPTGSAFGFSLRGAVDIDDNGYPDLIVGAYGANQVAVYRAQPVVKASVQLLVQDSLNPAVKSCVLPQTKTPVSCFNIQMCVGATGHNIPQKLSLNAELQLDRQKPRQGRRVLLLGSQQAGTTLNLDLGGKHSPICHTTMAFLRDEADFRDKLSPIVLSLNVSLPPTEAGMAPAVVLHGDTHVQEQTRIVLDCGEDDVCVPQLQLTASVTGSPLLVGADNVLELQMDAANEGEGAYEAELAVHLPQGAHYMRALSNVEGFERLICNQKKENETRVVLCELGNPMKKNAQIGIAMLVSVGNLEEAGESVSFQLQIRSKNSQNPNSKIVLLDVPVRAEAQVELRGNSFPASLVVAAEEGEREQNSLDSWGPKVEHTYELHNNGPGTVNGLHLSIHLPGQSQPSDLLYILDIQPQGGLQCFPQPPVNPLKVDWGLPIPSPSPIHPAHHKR
Sequence (P08514 891-1039 partner limits assumed): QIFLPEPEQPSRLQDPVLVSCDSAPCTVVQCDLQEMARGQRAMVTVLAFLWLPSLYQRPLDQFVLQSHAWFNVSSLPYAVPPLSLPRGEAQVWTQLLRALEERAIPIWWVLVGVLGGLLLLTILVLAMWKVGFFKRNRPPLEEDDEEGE
Sequence (P05106 27-788): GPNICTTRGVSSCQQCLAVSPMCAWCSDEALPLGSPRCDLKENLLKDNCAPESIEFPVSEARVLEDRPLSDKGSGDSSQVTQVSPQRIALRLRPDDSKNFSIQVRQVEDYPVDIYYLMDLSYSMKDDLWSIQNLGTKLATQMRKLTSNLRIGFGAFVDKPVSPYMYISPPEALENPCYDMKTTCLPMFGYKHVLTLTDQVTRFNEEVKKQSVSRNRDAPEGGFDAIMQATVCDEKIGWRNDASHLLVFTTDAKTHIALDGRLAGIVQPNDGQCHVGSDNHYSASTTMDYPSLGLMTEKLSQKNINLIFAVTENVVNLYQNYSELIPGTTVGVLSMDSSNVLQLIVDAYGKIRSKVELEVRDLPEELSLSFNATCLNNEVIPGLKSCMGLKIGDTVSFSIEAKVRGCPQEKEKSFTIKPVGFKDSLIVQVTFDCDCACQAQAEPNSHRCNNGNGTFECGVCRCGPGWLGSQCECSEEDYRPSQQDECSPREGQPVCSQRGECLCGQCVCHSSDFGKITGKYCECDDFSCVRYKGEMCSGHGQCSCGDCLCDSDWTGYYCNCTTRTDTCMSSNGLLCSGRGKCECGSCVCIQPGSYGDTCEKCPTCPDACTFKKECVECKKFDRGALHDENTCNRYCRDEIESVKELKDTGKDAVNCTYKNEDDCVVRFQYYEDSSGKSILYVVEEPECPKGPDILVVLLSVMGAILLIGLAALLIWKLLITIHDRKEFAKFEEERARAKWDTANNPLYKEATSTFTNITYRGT
Test: Inhibition of fibrinogen binding to immobilised fibrinogen receptor glycoprotein IIb/IIIa (ELISA)
Conditions: glycoprotein IIb/IIIa from human blood platelets, bound to microtiter plates, read-out: IC50 (concentration required to inhibit the binding of fibrinogen to the immobilised receptor by 50%)
pIC50: −log10 of the molar value.
Decide using pIC50: a value greater than or equal to 8 is t, a smaller one is f.

Answered cases to consult:
* N=C(N)c1ccc(C(=O)NC(CC(=O)NCCC(=O)O)c2ccccc2)cc1 (racemic) [Example 10] | f
* N=C(N)c1ccc(CC(=O)NCCC(=O)N[C@@H](CC(=O)O)C(=O)N[C@@H](Cc2ccccc2)C(=O)O)cc1 [Example 3] | f
* N=C(N)c1ccc(C(=O)N2CCCC(C(=O)NCCC(=O)O)C2)cc1 (racemic) [Example 7] | f

## Task Please check the record N=C(N)c1ccc(C(=O)NCCCC(=O)NCCC(=O)O)cc1 [Example 8] and state if its pIC50 is at or above 8.
## Result f

## Task Please check the record N=C(N)c1ccc(C(=O)NCCC(=O)N[C@@H](CC(=O)O)C(=O)N[C@@H](Cc2ccc(O)cc2)C(=O)O)cc1 [Example 39] and state if its pIC50 is at or above 8.
## Result t

## Task Please check the record N=C(N)c1ccc(C(=O)NCCCCC(=O)N[C@@H](CC(=O)O)C(=O)N[C@@H](Cc2ccccc2)C(=O)O)cc1 [Example 11] and state if its pIC50 is at or above 8.
## Result t

## Task Please check the record N=C(N)c1ccc(NC(=O)CCCC(=O)N[C@@H](CC(=O)O)C(=O)N[C@@H](Cc2ccccc2)C(=O)O)cc1 [Example 4] and state if its pIC50 is at or above 8.
## Result f

## Task Please check the record N=C(N)c1ccc(C(=O)NCCC(=O)NCCC(=O)O)cc1 [Example 9] and state if its pIC50 is at or above 8.
## Result t
